Measured -log10 GI50, listed per entry for reference.
- System: CAL120
- Test Description: -log10 GI50 (growth inhibition 50%) (-log10(M)); higher = more potent growth inhibition
Keep the answer to the number alone.

Some compounds with recorded -log10 GI50:
CCC[C@H](N[C@H]1CCc2cc(F)cc(F)c2C1)C(=O)Nc1cn(C(C)(C)CNCC(C)(C)C)cn1 :: 4.76
COc1ccc(-c2cc3c(C)nc(N)nc3n([C@H]3CC[C@H](OCCO)CC3)c2=O)cn1 :: 6.05
Cn1ncc(Cl)c1-c1cc(C(=O)N[C@H](CN)Cc2ccc(F)c(F)c2)oc1Cl :: 5.13

**Q:** Quick one: -log10 GI50 for "CC(=O)NCC(=O)N1[C@@H]2CC[C@H]1c1ccc(Nc3ncc(C(F)(F)F)c(NC4CCC4)n3)cc12" ?
**A:** 5.76

---

- System: SKBR3
- Test Description: -log10 GI50 (growth inhibition 50%) (-log10(M)); higher = more potent growth inhibition
Parameter: -log10 GI50. Scope: all listed entries.
Please give only the number in your answer, with no unit.

CO[C@H]1C[C@@H]2CC[C@@H](C)[C@@](O)(O2)C(=O)C(=O)N2CCCC[C@H]2C(=O)O[C@H]([C@H](C)C[C@@H]2CC[C@@H](O)[C@H](OC)C2)CC(=O)[C@H](C)/C=C(\C)[C@@H](O)[C@@H](OC)C(=O)[C@H](C)C[C@H](C)/C=C/C=C/C=C/1C :: 8.09

**Q:** Fill in: -log10 GI50 of COc1cc([C@@H]2c3cc4c(cc3[C@@H](O[C@@H]3O[C@@H]5CO[C@@H](C)O[C@H]5[C@H](O)[C@H]3O)[C@H]3COC(=O)[C@H]23)OCO4)cc(OC)c1O [Etoposide] is ___
**A:** 5.92

**Q:** Value lookup for -log10 GI50; key = "CO[C@H]1C[C@@H]2CC[C@@H](C)[C@@](O)(O2)C(=O)C(=O)N2CCCC[C@H]2C(=O)O[C@H]([C@H](C)C[C@@H]2CC[C@@H](OC(=O)C(C)(CO)CO)[C@H](OC)C2)CC(=O)[C@H](C)/C=C(\C)[C@@H](O)[C@@H](OC)C(=O)[C@H](C)C[C@H](C)/C=C/C=C/C=C/1C"
**A:** 7.27

**Q:** Entry "C[C@@H](Oc1cc(-n2cnc3ccc(CN4CCN(C)CC4)cc32)sc1C(N)=O)c1ccccc1C(F)(F)F" has what -log10 GI50?
**A:** 6.92

---

- Tested on: SUM159PT
- Test Description: -log10 GI50 (growth inhibition 50%) (-log10(M)); higher = more potent growth inhibition
Endpoint Label: -log10 GI50

Sample answers from the record:
CN(Cc1cnc2nc(N)nc(N)c2n1)c1ccc(C(=O)N[C@@H](CCC(=O)O)C(=O)O)cc1 [Methotrexate] :: < 3.48
C[C@@H](Oc1cc(-c2cnn(C3CCNCC3)c2)cnc1N)c1c(Cl)ccc(F)c1Cl :: 5.79
COc1cccc2c1C(=O)c1c(O)c3c(c(O)c1C2=O)C[C@@](O)(C(=O)CO)C[C@@H]3O[C@H]1C[C@H](N)[C@H](O)[C@H](C)O1 :: 6.77

Next item in the queue.
**Q:** Give SUM159PT -log10 GI50 for "Cc1c(O)cccc1C(=O)N[C@@H](CSc1ccccc1)[C@H](O)CN1C[C@H]2CCCC[C@H]2C[C@H]1C(=O)NC(C)(C)C"
**A:** 4.76
